composite z-score by entry:
test system: Wnt5a (protein binding on small-molecule microarray); test: Wnt5a binders on small-molecule microarray, primary screen, biophysical, 635/667 nm fluorescence (AID 1142); details: 635 nm fluorescence, higher = more signal;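 further: fluorescence read at 667 nm with signal to noise per printed feature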
Hey, just send me the number, nothing else.

Examples from the recorded data:
{"Compound": "O=C1O[C@@H](c2ccccc2)[C@@H](c2ccccc2)N2[C@@H](c3ccc(O)cc3)[C@]3(C(=O)Nc4ccc(C#CC5(O)CCCCCC5)cc43)[C@@H](C(=O)N3CCCCCCC3)[C@H]12", "composite z-score": 1.74}
{"Compound": "[N-]=[N+]=NCc1ccccc1C[C@@]1(C(=O)NCC(O)CO)N=C(c2ccc(OCCCO)cc2)O[C@@H]1c1ccccc1CN=[N+]=[N-] (stereo partly specified)", "composite z-score": 0.604}
{"Compound": "C=C(COC)C(=O)CC[C@H](OC(C)=O)c1cccc(OCCO)c1", "composite z-score": 0.145}
{"Compound": "COc1ccc(C#Cc2ccc3c(c2)[C@]2(C(=O)N3)[C@H](c3ccc(O)cc3)N3[C@H](c4ccccc4)[C@H](c4ccccc4)OC(=O)[C@H]3[C@@H]2C(=O)NC[C@H](O)c2ccccc2)cc1", "composite z-score": 0.365}
{"Compound": "CCCCCN1CC=CC23O[C@@H]4/C=C\\CCCOC(=O)C4[C@H]2C(=O)N(CCCCCCO)[C@@H]3C1=O (stereo partly specified)", "composite z-score": -0.686}

In: Item under review: `COCCOC(=O)N1C(=O)[C@@]2(c3cc(C#CCNC(N)=O)ccc31)[C@H](c1ccc(OCCO)cc1)N1[C@H](c3ccccc3)[C@H](c3ccccc3)OC(=O)[C@H]1[C@@H]2C(=O)N1CCc2cc(OC)c(OC)cc2C1` . Reported composite z-score?
Out: 0.426
